Tested on: Caco-2
Test: cell viability relative to DMSO; higher = less toxic
Settings: 72 h; 10 nM
Structures can show the parent of a compound that is named as a salt.
The entries below come with measured cell viability values attached.
readout.type: cell viability

compound: Cc1ccc(C(=O)N(CCCN)[C@@H](c2oc3cc(Cl)ccc3c(=O)c2Cc2ccccc2)C(C)C)cc1
experimental.result: 78.2%
//
compound: CC[C@H](Nc1ncnc2[nH]cnc12)c1nc2cccc(F)c2c(=O)n1-c1ccccc1 [idelalisib]
experimental.result: 98.1%
//
compound: Cc1cc(C(=CNc2ccc(Cl)cc2)C(=O)Nc2ccc(Cl)cc2)on1 [CCMI]
experimental.result: 93%
//
compound: CC(=O)N1CCN(CCOc2ccc(C3CCN(C4=Nn5c(nnc5C(F)(F)F)CC4)CC3)cc2)CC1 [AZD3514]
experimental.result: 99.3%
//
compound: CC(Cc1cccc(C(F)(F)F)c1)NCCOC(=O)c1ccccc1 (centres undefined) [benfluorex]
experimental.result: 95.9%
//
compound: CCN(CC)C(=O)N[C@H]1C=C2c3cccc4[nH]cc(c34)C[C@H]2N(C)C1 [lisuride]
experimental.result: 81.3%
//
compound: CNCCc1cnc[nH]1 [N-alpha-methylhistamine-dihydrochloride]
experimental.result: 104%
//
compound: O=C(O[C@H]1CN2CCC1CC2)N(Cc1cc(F)c(F)c(F)c1)c1cccc(F)c1 [tarafenacin]
experimental.result: 96.5%
//
compound: O=C(NC1CC1)c1cc(-c2cccs2)on1 [ISX-9]
experimental.result: 98.3%

---

Tested on: Caco-2
Assay: cell viability relative to DMSO; higher = less toxic
Details: 72 h; 1000 nM

compound: CN1CCC[C@@H]1Cc1c[nH]c2ccc(CCS(=O)(=O)c3ccccc3)cc12 [eletriptan]
cell viability: 105%
//
compound: C[C@H]1C[C@@H]2[C@H]([C@@H](O)C[C@@]3(C)[C@H]2CC[C@]3(O)C(=O)COC(=O)CCC(=O)O)[C@@]2(C)C=CC(=O)C=C12 [methylprednisolone-sodium-succinate]
cell viability: 99.6%
//
compound: CC(C)c1nnc(-c2ccc(-c3ccccc3)nc2)n1-c1cccc2nonc12 [ASP-2535]
cell viability: 95.5%
//
compound: N=C(NCCC[C@H](N)C(=O)O)N[N+](=O)[O-] [NG-nitro-arginine]
cell viability: 84.2%

---

System: Calu-3
Assay: cell viability relative to DMSO; higher = less toxic
Conditions: 72 h; 10000 nM
The entries below come with measured cell viability values attached.
readout.type: cell viability (%)

molecule: CC1(C)CC[C@]2(C(=O)O)CC[C@]3(C)C(=CC[C@@H]4[C@@]5(C)CC[C@H](O)C(C)(C)[C@@H]5CC[C@]43C)[C@@H]2C1
readout.type: cell viability
experimental.result: 89.8
//
molecule: CN1CCC[C@@H]1Cc1c[nH]c2ccc(CCS(=O)(=O)c3ccccc3)cc12
readout.type: cell viability
experimental.result: 87.3
//
molecule: NC(=O)c1cccnc1 [nicotinamide]
readout.type: cell viability
experimental.result: 94.1
//
molecule: C[C@]12CC[C@@H](O)C[C@@H]1CC[C@@H]1[C@@H]2CC[C@]2(C)C(c3ccccc3)=CC[C@@H]12
readout.type: cell viability
experimental.result: 99.8
//
molecule: CNC(=O)c1ccc(-c2cnc3ncc(Cc4ccc5ncccc5c4)n3n2)cc1F
readout.type: cell viability
experimental.result: 110
//
molecule: COc1ccc2[nH]c([S+]([O-])Cc3ncc(C)c(OC)c3C)nc2n1 (stereo not drawn)
readout.type: cell viability
experimental.result: 105
//
molecule: CC(=O)NCCCOc1ccc(C(=O)N2CCC(N3C(=O)CCc4ccccc43)CC2)cc1
readout.type: cell viability
experimental.result: 79
//
molecule: CN(CC[C@@H](Oc1ccc(-c2ccccc2)cc1)c1ccc(F)cc1)CC(=O)O
readout.type: cell viability
experimental.result: 104

---

System: Calu-3
Test: drug sensitivity score (DSS) for viability; higher = more toxic; extreme values may be limits of the assay
Conditions: 72 h
Structures can show the parent of a compound that is named as a salt.

compound: Cc1cccc(Cc2c[nH]cn2)c1C
drug sensitivity score: 0
//
compound: COc1ccc(/C=C\c2cc(OC)c(OC)c(OC)c2)cc1O
drug sensitivity score: 11.5
//
compound: C=C1/C(=C\C=C2/CCC[C@]3(C)[C@@H]([C@H](C)CC[C@@H](O)C(C)C)CC[C@@H]23)C[C@@H](O)C[C@@H]1O
drug sensitivity score: 0
//
compound: OC[C@@H](O)[C@@H](O)[C@H](O)[C@@H](O)CO
drug sensitivity score: 0
//
compound: C[C@H]1C[C@@H]2[C@H]([C@@H](O)C[C@@]3(C)[C@H]2CC[C@]3(O)C(=O)COC(=O)CCC(=O)O)[C@@]2(C)C=CC(=O)C=C12 [methylprednisolone-sodium-succinate]
drug sensitivity score: 0
//
compound: C[C@]12CC[C@@H](O)C[C@@H]1CC[C@@H]1[C@@H]2CC[C@]2(C)C(c3ccccc3)=CC[C@@H]12
drug sensitivity score: 0
//
compound: O=C(O)c1ccccc1NCCc1ccccc1
drug sensitivity score: 0
//
compound: O=c1cc(-c2ccccc2)oc2cc(O)c(O)c(O)c12
drug sensitivity score: 0
//
compound: COc1ccc(C2(O)CCC(N3CC[C@@H](NC(=O)CNC(=O)c4cccc(C(F)(F)F)c4)C3)CC2)cn1 (some centres undefined)
drug sensitivity score: 0
//
compound: CC(=O)NC[C@H]1CN(c2ccc(-c3ccc(CNCc4cnn[nH]4)cc3)c(F)c2)C(=O)O1
drug sensitivity score: 0
//
compound: CC(=O)N[C@@H](C=O)[C@@H](O)[C@H](O)[C@H](O)CO
drug sensitivity score: 0
//
compound: COc1ccc2nc3[nH]nc(C)c3c(NCCOCCO)c2c1
drug sensitivity score: 2.1
//
compound: CNCCc1cnc[nH]1 [N-alpha-methylhistamine-dihydrochloride]
drug sensitivity score: 0
//
compound: Cc1cc(CCCOc2c(C)cc(-c3noc(C(F)(F)F)n3)cc2C)on1
drug sensitivity score: 0
//
compound: CN(C)CCc1c[nH]c2ccc(C[C@H]3COC(=O)N3)cc12
drug sensitivity score: 0
//
compound: CNCCn1c(=O)c2cc(OC)c(OC)cc2c2cnc3cc4c(cc3c21)OCO4
drug sensitivity score: 11.8
//
compound: CCOC(N)=O
drug sensitivity score: 0
//
compound: CN1CCCC(CN2c3ccccc3Sc3ccccc32)C1 (centres undefined)
drug sensitivity score: 1.2
//
compound: CCCCCCCCCCCC1=C(O)C(=O)C=C(O)C1=O
drug sensitivity score: 0

---

Test system: HepG2
Test: cell viability relative to DMSO; higher = less toxic
Conditions: 72 h; 10000 nM
The entries below come with measured cell viability values attached.

compound: Cc1cc(CCCOc2c(C)cc(-c3noc(C(F)(F)F)n3)cc2C)on1
cell viability: 112%

compound: C#C[C@]1(O)CC[C@H]2[C@@H]3CCC4=CC(=O)CCC4=C3C=C[C@@]21CC
cell viability: 90.6%

compound: CC(C)(N)Cc1ccccc1
cell viability: 94.8%

compound: CCCc1cc(C)[nH]c(=O)c1CNC(=O)c1cc(-c2ccc(N3CCN(C(C)C)CC3)nc2)cc2c1cnn2C(C)C
cell viability: 88.7%

compound: CC(C)c1cccc2c1OC(C(C)C)C(=S)N2CC(=O)O (centres undefined)
cell viability: 96.6%

compound: CN1C(C(=O)Nc2ccccn2)=C(O)c2sccc2S1(=O)=O
cell viability: 101%

compound: CCCCCCCCCCCC1=C(O)C(=O)C=C(O)C1=O
cell viability: 102%

compound: Cc1cc(C)c2c(N)c(C(=O)NCc3ccc(Cl)cc3)sc2n1
cell viability: 98.5%

compound: COc1ccc(Cl)cc1[C@]1(F)C(=O)Nc2cc(C(F)(F)F)ccc21
cell viability: 95.2%

---

Test system: U2OS
Assay: cell viability relative to DMSO; higher = less toxic
Settings: 72 h; 10 nM
The entries below come with measured cell viability values attached.

compound: COc1cc2c(cc1OC)CN(C(=O)[C@@H](NCc1ccncc1)C(C)(C)C)CC2
cell viability (%): 100
//
compound: CN(C(=O)Cc1ccccc1)[C@H](CN1CCCC1)c1ccccc1
cell viability (%): 95.8
//
compound: C[C@]1(c2nc3c(C(N)=O)cccc3[nH]2)CCCN1
cell viability (%): 104
//
compound: Cc1ccc(/N=C/N(C)/C=N/c2ccc(C)cc2C)c(C)c1
cell viability (%): 99.2
//
compound: Cc1cc(C(=O)NOCCO)c(Nc2ccc(I)cc2F)n(C)c1=O
cell viability (%): 94
//
compound: COc1ccc(Cl)cc1[C@]1(F)C(=O)Nc2cc(C(F)(F)F)ccc21
cell viability (%): 102
//
compound: N#Cc1ccc(COC[C@H]2O[C@@H](n3c(NCc4ccc(Cl)c(Cl)c4)nc4c(N)ncnc43)[C@H](O)[C@@H]2O)cc1
cell viability (%): 97.9
//
compound: Cc1ccc(S(=O)(=O)NC(=O)NN2CC3CCCC3C2)cc1 (centres undefined) [gliclazide]
cell viability (%): 99.3
//
compound: Cc1[nH]c(=O)c(C#N)cc1-c1ccc2nccn2c1
cell viability (%): 102
